System: K562
Assay: cell viability relative to vehicle control; higher = less cytotoxic;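 further: after 48 h exposure read by CellTiter-Glo luminescence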
Settings: 10 µM; SRSF2 genotype: SRSF2 wt/wt
Entries and their cell viability values follow.
The reply should be a number in %, with the unit left off.

Illustrative cases are given below, each with its answer.
{"Compound": "O=C1c2cccc(O)c2C(=O)c2c(O)cc(CO)cc21", "cell viability [%]": 83.3}
{"Compound": "Cc1cc(CN2CCN(c3c(Br)cnc4nc(-c5ccc(N6CCN(C)CC6)cc5)[nH]c34)CC2)no1", "cell viability [%]": 24.2}
{"Compound": "Cc1ccc(NC(=O)Nc2cc(C(F)(F)F)ccc2F)cc1Nc1ccc2c(c1)NC(=O)/C2=C\\c1ccc[nH]1", "cell viability [%]": 62.1}
{"Compound": "CN1CCC(CNc2ccc3ncc(-c4cccc(OC(F)(F)F)c4)n3n2)CC1 [SGI-1776 free base]", "cell viability [%]": 2.08}
{"Compound": "CC1=C(CSC(=S)N2CCCCC2)C(=O)c2ccccc2C1=O", "cell viability [%]": 8.02}
{"Compound": "C=CCn1c(=O)c2cnc(Nc3ccc(N4CCN(C)CC4)cc3)nc2n1-c1cccc(C(C)(C)O)n1", "cell viability [%]": 10.5}
{"Compound": "CCOc1cc(C(=O)N2CCC(N3CCN(C)CC3)CC2)ccc1Nc1ncc2c(n1)N(C1CCCC1)c1ccccc1C(=O)N2C", "cell viability [%]": 15.2}
{"Compound": "OC[C@H]1O[C@@H](c2ccc(F)c(Cc3cc4ccccc4s3)c2)[C@H](O)[C@@H](O)[C@@H]1O", "cell viability [%]": 102}

Lab note: need cell viability with K562 for entry CCN(CC)C(=O)/C(C#N)=C/c1cc(O)c(O)c([N+](=O)[O-])c1 , please look it up.
107

// next record CC[C@H]1OC(=O)[C@H](C)[C@@H](O[C@H]2C[C@@](C)(OC)[C@@H](O)[C@H](C)O2)[C@H](C)[C@@H](O[C@@H]2O[C@H](C)C[C@H](N(C)C)[C@H]2O)[C@](C)(O)C[C@@H](C)/C(=N\OCOCCOC)[C@H](C)[C@@H](O)[C@]1(C)O [Roxithromycin (Roxl-150)]
94.9

// next record CCC1(c2ccccc2)C(=O)NCNC1=O
107

// next record NC(=O)C1CCCc2c1[nH]c1ccc(Cl)cc21 (stereo unspecified)
105

// next record O=C(Nc1ccc(S(=O)(=O)Nc2ccccc2Cl)c(Cl)c1)c1ccccn1
99.7

---

Test system: OCI-AML2
Test: cell viability relative to vehicle control; higher = less cytotoxic
Details: 10 µM; SRSF2 genotype: wt/wt
Exam item: assign t to entries whose cell viability is below 50% and f to entries at or above 50%. Note that a value of exactly 50% receives f.

Below, 6 compounds whose answers are already recorded.
{"Compound": "COC(=O)N[C@H](C(=O)N1CCC[C@H]1c1ncc(-c2ccc(-c3ccc(-c4cnc([C@@H]5CCCN5C(=O)[C@@H](NC(=O)OC)C(C)C)[nH]4)cc3)cc2)[nH]1)C(C)C [Daclatasvir Digydrochloride]", "System name": "OCI-AML2", "Group": "f"}
{"Compound": "CNc1nc(Nc2cn(C(C)(C)C#N)nc2C)ncc1C(F)(F)F", "System name": "OCI-AML2", "Group": "f"}
{"Compound": "COc1c(C)c2c(c(O)c1C/C=C(\\C)CCC(=O)O)C(=O)OC2", "System name": "OCI-AML2", "Group": "t"}
{"Compound": "C=C1CCC2C(C)(CO)C(O)CCC2(C)C1CC=C1C=COC1=O (centres undefined) [Dehydroandrographolide]", "System name": "OCI-AML2", "Group": "f"}
{"Compound": "COc1cc2ncnc(Nc3ccc(O)c(Br)c3)c2cc1OC", "System name": "OCI-AML2", "Group": "f"}
{"Compound": "OCc1c[nH]c2ccccc12", "System name": "OCI-AML2", "Group": "f"}

Lab note: confirm whether the reported cell viability for this compound is below 50%, equality not counting. compound: CC1(C)CC[C@]2(C(=O)O)CC[C@]3(CO)C(=CC[C@@H]4[C@@]5(C)C[C@H](O)[C@H](O[C@@H]6O[C@H](CO)[C@@H](O)[C@H](O)[C@H]6O)[C@@](C)(C(=O)O)[C@@H]5CC[C@]43C)[C@@H]2C1
f

// next record COc1ccc(-c2cc(=O)c3c(OC)c(OC)c(OC)c(OC)c3o2)cc1OC
f

// next record O=C1Nc2ccccc2C1=O
f

// next record COc1cc(CO)ccc1O
f

---

System: OCI-AML2
Assay: cell viability relative to vehicle control; higher = less cytotoxic
Settings: 10 µM; SRSF2 genotype: P95H/wt
Structures can show the parent of a compound that is named as a salt.
Entries and their cell viability values follow.
The reply should be a number in %, with the unit left off.

Illustrative cases are given below, each with its answer.
{"Compound": "COc1ccc(CNc2nc(N3CCC[C@H]3CO)ncc2C(=O)NCc2ncccn2)cc1Cl", "Readout units": "%", "Quantitative readout": 102}
{"Compound": "N#Cc1c(N)nc(NC2CC2)nc1N", "Readout units": "%", "Quantitative readout": 107}
{"Compound": "N=C1NC(=O)/C(=C/c2ccc(O)cc2)S1", "Readout units": "%", "Quantitative readout": 64.9}
{"Compound": "Cc1cc(O)c(C(=O)CCC(C)C)c(=O)o1", "Readout units": "%", "Quantitative readout": 95.9}
{"Compound": "CC[C@H]1OC(=O)[C@H](C)[C@@H](O[C@H]2C[C@@](C)(OC)[C@@H](O)[C@H](C)O2)[C@H](C)[C@@H](O[C@@H]2O[C@H](C)C[C@H](N(C)C)[C@H]2O)[C@](C)(O)C[C@@H](C)[C@@H]2N[C@@H](COCCOC)O[C@H]([C@H]2C)[C@]1(C)O", "Readout units": "%", "Quantitative readout": 94.6}

Using the record for OCCc1c[nH]c2ccccc12 , report its cell viability.
90.5

// next record COc1cc(Br)c(Nc2nc(-c3c(C)nc4ncccn34)cs2)c(Br)c1
2.76

// next record COC(=O)/C=C/C(=O)OC [Dimethyl Fumarate]
111

---

Test system: OCI-AML2
Experiment: cell viability relative to vehicle control; higher = less cytotoxic
Conditions: 10 µM; SRSF2 genotype: P95H/wt
Entries and their cell viability values follow.
Your answer should be a number followed by the unit of measure.

Illustrative cases are given below, each with its answer.
{"Compound": "Cc1[nH]nc2ccc(-c3cncc(OC[C@@H](N)Cc4ccccc4)c3)cc12", "Result": "0.26%"}
{"Compound": "CC(=O)/N=c1/sc(S(N)(=O)=O)nn1C [Methazolamide]", "Result": "100%"}
{"Compound": "COC(=O)CCC(C)C1CCC2C3C(O)CC4CC(O)CCC4(C)C3CC(O)C12C (stereo not given) [Methyl Cholate]", "Result": "102%"}
{"Compound": "CN(C)/N=N/c1[nH]cnc1C(N)=O", "Result": "107%"}

Now for another entry.
Using the record for CC[C@@H]1C(=O)N(C)c2cnc(Nc3ccc(C(=O)NC4CCN(C)CC4)cc3OC)nc2N1C1CCCC1 , report its cell viability.
0.53%

---

System: MARIMO
Assay: cell viability relative to vehicle control; higher = less cytotoxic
Conditions: 10 µM; SRSF2 genotype: SRSF2 P95H/wt
Metric: cell viability (%)
The reply should be a number in %, with the unit left off.

{"Compound": "COc1ccc2cc(-c3nc(-c4ccc([S+](C)[O-])cc4)[nH]c3-c3ccncc3)ccc2c1 (stereo not drawn) [Tie2 kinase inhibitor]", "Readout units": "%", "cell viability": 88.6}

Using the record for C[C@@H]1O[C@@H](O[C@H]2[C@H](Oc3cc(O)c4c(c3)O[C@H](c3ccc(O)cc3)CC4=O)O[C@H](CO)[C@@H](O)[C@@H]2O)[C@H](O)[C@H](O)[C@H]1O [Naringin (Naringoside)] , report its cell viability.
102

// next record CCN(CC)CCCC[C@H](NC(=O)[C@H](CC(C)C)NC(=O)[C@H](C)NC(=O)[C@H](Cc1ccccc1)NC(=O)c1ccc(C(C)(C)C)cc1)C(=O)N[C@@H](CO)C(=O)OC
86.1

// next record Cc1ccc(CNc2ncnc3ccc(-c4ccc(CO)o4)cc23)o1
90

// next record O=C(O)c1cc(C(F)(F)F)ccc1N1CC[C@H](OCc2ccccn2)C1
114

// next record CN1CCC(=C2c3ccccc3CCc3cccnc32)CC1 [Azatadine dimaleate]
92.2

---

Test system: K562
Assay: cell viability relative to vehicle control; higher = less cytotoxic
Conditions: 10 µM; SRSF2 genotype: SRSF2 wt/wt
Counter-ions that a name gives are not always drawn.
Metric: cell viability (%)
The reply should be a number in %, with the unit left off.

Illustrative cases are given below, each with its answer.
{"Compound": "CCCCCCCCCC=O", "Readout units": "%", "cell viability": 106}
{"Compound": "C[C@@H](CN1CC(=O)NC(=O)C1)N1CC(=O)NC(=O)C1", "Readout units": "%", "cell viability": 110}
{"Compound": "C=C1C[C@@]23CC[C@H]4[C@@](C)(CCC[C@@]4(C)C(=O)O)[C@@H]2CC[C@@H]1C3", "Readout units": "%", "cell viability": 107}
{"Compound": "CCCCc1nc(C)c(CC(=S)N(C)C)c(=O)n1Cc1ccc(-c2ccccc2-c2nnn[nH]2)cc1", "Readout units": "%", "cell viability": 106}
{"Compound": "CC(C)CCNC(=O)[C@H](CC(C)C)NC(=O)[C@H]1O[C@@H]1C(=O)O [Loxistatin Acid (E-64C)]", "Readout units": "%", "cell viability": 100}

Using the record for COc1ccc(S(=O)(=O)Nc2cc(-c3c(O)ccc4ccccc34)c(O)c3ccccc23)cc1 , report its cell viability.
34.5

// next record C=C[C@]1(C)C[C@@H](OC(=O)CSC(C)(C)CNC(=O)[C@H](N)C(C)C)[C@]2(C)[C@H](C)CC[C@]3(CCC(=O)[C@H]32)[C@@H](C)[C@@H]1O [Valnemulin HCl]
75.3

// next record COc1cc(-c2oc3cc(O)cc(O)c3c(=O)c2O)ccc1O
86.6

// next record CC(C)OC(=O)[C@H](C)N[P@](=O)(OC[C@H]1O[C@@H](n2ccc(=O)[nH]c2=O)[C@](C)(F)[C@@H]1O)Oc1ccccc1
95.8

// next record O=C1NC(=O)/C(=C/c2ccc3nccc(-c4ccncc4)c3c2)S1
69.7

// next record C[C@@H]1C[C@H]2[C@@H]3CCC4=CC(=O)C=C[C@]4(C)[C@@]3(Cl)[C@@H](O)C[C@]2(C)[C@@]1(OC(=O)c1ccco1)C(=O)CCl [Mometasone furoate]
92.2
